Test system: CAKI-1 renal
test.protocol: NCI tumour cell line growth inhibition, 48 h
# reported TGI; entries follow
Write the answer as a number in µM, unit excluded.

Past entries and their recorded results:
{"compound": "Cc1ccc(/C=C/c2nnc(N/N=C/c3ccc4c(c3)OCO4)[nH]c2=O)cc1", "TGI, µM": 91.8}
{"compound": "CCOP(=O)(OCC)C(Nc1ccc(Br)cc1)c1cccc([N+](=O)[O-])c1 (stereo not drawn)", "TGI, µM": 49.7}
{"compound": "NCCCCc1cc(O)c2c(c1O)C(=O)c1ccccc1C2=O", "TGI, µM": 27.2}

Switching to the query record.
INPUT: // returns reported TGI for input `COc1cccc([C@H]2C/C(=N\NC(=O)C(=O)N[C@@H](C)c3ccccc3)c3ccccc3N2)c1`
OUTPUT: 54.1
